assay: HUVEC growth inhibition – cell-based, human, primary screen (AID 575); settings: HUVEC proliferation, CellTiter-Glo luminescence, 72 h; at 10 µM;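 also: 100% = median of untreated cell wells with 0.1% DMSO on each plate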
Calls of active or inactive are those of the source.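 The calls were made as follows: active = viability at or below 30% in both replicate assays; inconclusive = viability at or below 30% in just one of the two assays; inactive = the rest.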
// allowed return values: YES (active), NO (inactive)

Here are 8 compounds together with their reported answers.
O=C(OCCN1C(=O)c2ccccc2C1=O)c1ccc(S(=O)(=O)N2CCCCCC2)cc1	NO
COc1cccc(-c2csc3nnc(SCC(=O)c4ccc(NC(C)=O)cc4)n23)c1	NO
CCn1c(=O)cc(SCC(=O)N2CCN(C3CCCCC3)CC2)c2ccccc21	NO
CSCCC(NC(=O)c1ccco1)C(=O)OC(C)C(=O)NC(=O)NC1CCCCC1 (stereo not drawn)	NO
COc1cccc2cc(C(=O)N3CCN(C45CC6CC(CC(C6)C4)C5)CC3)c(=O)oc12	NO
c1ccc(CN2C3=NCCCN3c3ccccc32)cc1	NO
CC(=O)N1CCN(Cc2ccc(Br)s2)CC1	NO
O=C(Nc1ccccc1)c1cccnc1N1CCOCC1	NO

What did this assay record as the result for CCOC(=O)COc1ccc(S(=O)(=O)Nc2ccc3c(c2)OCO3)cc1 ?
YES

What did this assay record as the result for CCn1c(=O)cc(SCC(=O)N2CCOCC2)c2ccccc21 ?
NO

What did this assay record as the result for CCOC(=O)N1CCN(S(=O)(=O)c2cc(Cl)c(OC)cc2Cl)CC1 ?
NO

What did this assay record as the result for CCOCCCNC(=O)C1CCN(S(=O)(=O)N(CC(C)C)CC(C)C)CC1 ?
NO

What did this assay record as the result for COC(=O)c1nn(-c2ccc(-c3ccccc3)cc2)cc1O ?
NO

---

assay: reversal of MRP1-mediated doxorubicin resistance, pilot screen, H69AR cells, doxorubicin co-treatment (AID 601); details: H69AR cells + 2 uM doxorubicin, CellTiter-Glo, 72 h; at 10 µM; active compounds read high
The entries below come with measured differential viability (reversal) values attached.
Write the answer as a number in %, unit excluded.

Below, each entry is followed by its recorded differential viability (reversal) result.
O=C(CCN1C(=O)c2ccccc2C1=O)OCN1C(=O)c2ccccc2C1=O	-10.6
Cc1sc2ncn3ncnc3c2c1C	-8.71

Consider the molecule Cc1ccc(N2CC(C)Cn3c2nc2c3c(=O)n(CC(=O)OCc3ccccc3)c(=O)n2C)cc1C (stereo not drawn) and give its recorded differential viability (reversal).
26.6

Consider the molecule COc1ccc(-c2cc(O)cc(O)c2)cc1 and give its recorded differential viability (reversal).
7.77

Consider the molecule Cn1c(=O)[nH]c2cc3ccccc3cc21 and give its recorded differential viability (reversal).
16.5

---

The entries below come with measured viability values attached.
assay: growth inhibitors of H69AR lung tumor, primary screen, human, duplicate replicates (AID 580); details: H69AR lung tumor cells viability, ATP luminescence, 72 h; at 10 µM; active compounds read low;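 also: 100% = mean luminescence of untreated wells and 0% = no signal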
Write the answer as a number in %, unit excluded.

CCOC(=O)C1CCN(c2nc3ccccc3nc2C(C#N)C(=O)OCCOC)CC1 (stereo unspecified)	79.4
Cc1c2c(nc3nc4ccccc4n13)CC(C)(C)CC2=O	70.9
O=S(=O)(c1ccccc1)N(Cc1nc(-c2ccccc2)no1)C1CCCCC1	75.5
CCOc1ccc(C(=O)N(Cc2ccc(N(C)C)cc2)C2CCS(=O)(=O)C2)cc1 (stereo unspecified)	88.1
O=C(OCC#CCSc1nnc(-c2ccncc2)o1)c1cccs1	82

Consider the molecule CCOC(=O)C1CCCN(c2cc(=O)n(Cc3ccc(F)cc3)c(=O)[nH]2)C1 (stereo unspecified) and give its recorded viability.
97.2

Consider the molecule O=S(=O)(c1ccc(-c2csc(-c3cccnc3)n2)cc1)N1CCCCC1 and give its recorded viability.
84.2

---

assay: growth inhibitors of H69AR lung tumor, primary screen, human, duplicate replicates (AID 580); conditions: H69AR lung tumor cells viability, ATP luminescence, 72 h; at 10 µM; active compounds read low;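 also: 100% = mean luminescence of untreated wells and 0% = no signal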
The entries below come with measured viability values attached.
Write the answer as a number in %, unit excluded.

Below, each entry is followed by its recorded viability result.
COc1ccc(OC)c(NC(=O)CCN2CCC(C)CC2)c1	92.4
Cc1ccc(S(=O)(=O)N(CC(=O)N2CCC(C(N)=O)CC2)c2cccc(C(F)(F)F)c2)cc1	82.9
O=C(NC1CCCc2ccccc21)C1CCN(S(=O)(=O)c2cnc[nH]2)CC1 (stereo unspecified)	94.8
Brc1ccc(-c2cn3cccnc3n2)cc1	104
O=C(Cn1ccc2ccccc2c1=O)Nc1ccc2c(c1)OCO2	107

Turning now to a further record.
Consider the compound O=C(Nc1ccccc1C(=O)NCC1CCCO1)c1ccco1 (stereo unspecified) and give its recorded viability.
98.7

---

test: SK-BR-3 cell growth inhibitors, pilot screen, 24 h, human (AID 572); conditions: SK-BR-3 viability, CellTiter-Glo luminescence, at 10 µM, active compounds read low;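 also: compound exposure lasted between 18 and 24 h rather than exactly 24 h; 100% = carrier-treated control wells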
recorded-endpoint: viability (%)
Write the answer as a number in %, unit excluded.

Below, each entry is followed by its recorded viability result.
Cn1c(CNc2nc(-c3ccccc3)cs2)nnc1SCC(=O)N1CCc2ccccc21	96.5
COc1cccc(NC(=O)COC(=O)c2ccco2)c1	112
COc1ccccc1-c1noc(-c2cccnc2)n1	94
COc1cccc(C(=O)Nc2ncc3c(n2)CC(C)CC3=O)c1 (stereo unspecified)	97.5
COc1cc(C(=O)Nc2ccc(-n3cnnn3)c(C)c2)cc(OC)c1OC	105

Consider the compound N#Cc1c2n(c(=S)n(-c3ccccn3)c1=O)CCCCC2 and give its recorded viability.
81.5

Consider the compound CCOC(=O)c1sc(C)c2c1NC(C)(c1cccs1)NC2=O (stereo unspecified) and give its recorded viability.
105

Consider the compound Cc1ccc(Cn2nnc3c(=O)n(CC(=O)NCC4CCCO4)cnc32)cc1 (stereo unspecified) and give its recorded viability.
97

Consider the compound COc1ccc(-c2cc(O)cc(O)c2)cc1 and give its recorded viability.
108

Consider the compound COc1cc2c(cc1OC)C(c1cccnc1)CC(=O)N2 (stereo unspecified) and give its recorded viability.
106

---

test: HUVEC growth inhibition – cell-based, human, primary screen (AID 575); details: HUVEC proliferation, CellTiter-Glo luminescence, 72 h; at 10 µM; active compounds read low;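 also: 100% = median of untreated cell wells with 0.1% DMSO on each plate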
The entries below come with measured viability values attached.
Write the answer as a number in %, unit excluded.

O=C(c1cccnc1NCc1ccccc1)N1CCOCC1	86.4

Consider the compound CN=C(Nc1cc(C)nn1-c1ccccc1)c1ccccc1 and give its recorded viability.
86.6

Consider the compound O=C(Nc1ccccc1)c1ccc(NCC2CCCO2)c(S(=O)(=O)N2CCOCC2)c1 (configuration not stated) and give its recorded viability.
102

Consider the compound Cc1ccc(NC(=O)CCN2CCc3ccccc3C2)cc1 and give its recorded viability.
109

Consider the compound CCCCNC(=O)c1nc2ncc(Br)cn2n1 and give its recorded viability.
100

Consider the compound CCOC(=O)c1cn(CC)c2cc(N3CCOCC3)c(F)cc2c1=O and give its recorded viability.
94.6

Consider the compound Cn1nc(C(=O)NC2CCCCCC2)ccc1=O and give its recorded viability.
101

Consider the compound CC(c1nnc(SCC(=O)Nc2sccc2C#N)n1-c1ccc(Cl)cc1)N(C)C (configuration not stated) and give its recorded viability.
91.8

Consider the compound COCCNC(=O)Cn1nc(C(F)(F)F)c(Br)c1C and give its recorded viability.
90.4

---

molecular target: Receptor tyrosine-protein kinase erbB-2 (Homo sapiens) (UniProt P04626); experiment: reducers of endogenous Her2 protein level, primary screen, SKBR3 breast tumor cells, AlphaScreen, ATP viability (AID 461); details: 18-24 h, at 10 µM, active compounds read low;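 also: lower value means less Her2 protein in the cells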
Sequence (P04626 whole entry, looked up): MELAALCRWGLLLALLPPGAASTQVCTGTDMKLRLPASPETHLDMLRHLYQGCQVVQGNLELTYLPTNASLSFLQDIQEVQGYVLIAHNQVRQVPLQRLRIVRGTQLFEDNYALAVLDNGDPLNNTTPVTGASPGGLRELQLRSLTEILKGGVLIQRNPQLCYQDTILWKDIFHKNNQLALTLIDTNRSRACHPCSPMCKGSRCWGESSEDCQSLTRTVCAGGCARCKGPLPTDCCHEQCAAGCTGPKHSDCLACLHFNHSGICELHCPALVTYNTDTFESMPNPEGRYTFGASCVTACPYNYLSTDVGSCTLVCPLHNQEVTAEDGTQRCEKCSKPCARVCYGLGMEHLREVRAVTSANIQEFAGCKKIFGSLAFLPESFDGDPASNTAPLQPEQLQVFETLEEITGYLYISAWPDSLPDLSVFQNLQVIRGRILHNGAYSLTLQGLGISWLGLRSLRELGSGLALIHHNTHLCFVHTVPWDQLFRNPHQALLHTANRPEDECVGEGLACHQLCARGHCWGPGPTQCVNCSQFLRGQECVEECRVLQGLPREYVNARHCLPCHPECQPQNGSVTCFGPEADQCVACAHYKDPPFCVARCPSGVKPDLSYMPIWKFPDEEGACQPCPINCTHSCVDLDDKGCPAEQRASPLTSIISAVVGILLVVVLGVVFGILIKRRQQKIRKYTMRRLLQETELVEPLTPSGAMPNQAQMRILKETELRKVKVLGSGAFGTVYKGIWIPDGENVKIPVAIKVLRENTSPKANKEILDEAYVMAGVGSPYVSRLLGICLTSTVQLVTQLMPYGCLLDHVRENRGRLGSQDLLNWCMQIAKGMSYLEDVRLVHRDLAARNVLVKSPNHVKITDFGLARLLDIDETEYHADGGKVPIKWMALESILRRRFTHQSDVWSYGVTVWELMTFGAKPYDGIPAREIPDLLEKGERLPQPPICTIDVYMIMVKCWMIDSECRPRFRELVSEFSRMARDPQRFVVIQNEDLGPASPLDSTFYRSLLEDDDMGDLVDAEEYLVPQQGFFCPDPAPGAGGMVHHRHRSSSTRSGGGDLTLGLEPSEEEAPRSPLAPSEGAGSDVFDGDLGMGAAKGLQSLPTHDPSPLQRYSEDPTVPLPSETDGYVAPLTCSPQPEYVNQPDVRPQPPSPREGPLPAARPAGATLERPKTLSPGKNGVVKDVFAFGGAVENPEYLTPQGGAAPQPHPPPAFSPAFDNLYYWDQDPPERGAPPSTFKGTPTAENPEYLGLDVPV
The entries below come with measured Her2 level values attached.
Write the answer as a number in %, unit excluded.

Below, each entry is followed by its recorded Her2 level result.
CC(C)C(=O)Nc1nnc(CCc2nnc(NC(=O)C(C)C)s2)s1	97
COc1ccc(OCc2cccc(C(=O)O)c2)cc1	78.5
O=C(O)c1cc(/C=N\O)ccc1OCc1ccccc1	106

Consider the compound CCCC(=O)Nc1cccc(NC(=O)CN2CCN(c3ccccc3OC)CC2)c1 and give its recorded Her2 level.
83

Consider the compound N#Cc1nc(COc2ccc(Br)cc2)oc1N1CCCC1 and give its recorded Her2 level.
90

Consider the compound Cc1c(C(=O)NCc2cccnc2)oc2ccc(S(=O)(=O)N3CCCCC3)cc12 and give its recorded Her2 level.
89

---

assay: HUVEC growth inhibition – cell-based, human, primary screen (AID 575); conditions: HUVEC proliferation, CellTiter-Glo luminescence, 72 h; at 10 µM; active compounds read low;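 also: 100% = median of untreated cell wells with 0.1% DMSO on each plate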
recorded-endpoint: viability (%)
Write the answer as a number in %, unit excluded.

Below, each entry is followed by its recorded viability result.
Cc1cc(NS(=O)(=O)c2ccccc2)n(-c2ccccc2)n1	85.2
O=C(O)CN(c1ccccc1)C1SC(=O)NC1=O (stereo unspecified)	98.5
CCOCCc1nnc(NC(=O)c2ccc(OC)c(OC)c2)s1	62.8
Cc1nnc2ccc(N3CCN(c4cccc(C(F)(F)F)c4)CC3)nn12	75

Consider the compound CCc1ccccc1NC(=O)CN(c1cccc(OC)c1)S(C)(=O)=O and give its recorded viability.
110

Consider the compound COc1ccc(-c2cc(O)cc(O)c2)cc1 and give its recorded viability.
71.7

Consider the compound CCOc1ccc(CN2CCN(c3cc(C)nc4c5c(C)cc(C)nc5nn34)CC2)cc1 and give its recorded viability.
94.2

Consider the compound CCOC(=O)c1[nH]c(=O)c2ccccc2c1O and give its recorded viability.
95.8

Consider the compound CCOC(=O)CNC(=O)c1c(C)nn(-c2ccccc2)c1Cl and give its recorded viability.
96.2

Consider the compound COc1ccc(-n2c(=O)c3c4c(sc3n3c(C)nnc23)CCCC4)cc1 and give its recorded viability.
101

Consider the compound Cc1cccn2c(=O)c3cc(C#N)c(=O)n(CCCN4CCOCC4)c3nc12 and give its recorded viability.
99.8
